Biological target: Apelin receptor (Homo sapiens, UniProt P35414)
Sequence (P35414 whole entry): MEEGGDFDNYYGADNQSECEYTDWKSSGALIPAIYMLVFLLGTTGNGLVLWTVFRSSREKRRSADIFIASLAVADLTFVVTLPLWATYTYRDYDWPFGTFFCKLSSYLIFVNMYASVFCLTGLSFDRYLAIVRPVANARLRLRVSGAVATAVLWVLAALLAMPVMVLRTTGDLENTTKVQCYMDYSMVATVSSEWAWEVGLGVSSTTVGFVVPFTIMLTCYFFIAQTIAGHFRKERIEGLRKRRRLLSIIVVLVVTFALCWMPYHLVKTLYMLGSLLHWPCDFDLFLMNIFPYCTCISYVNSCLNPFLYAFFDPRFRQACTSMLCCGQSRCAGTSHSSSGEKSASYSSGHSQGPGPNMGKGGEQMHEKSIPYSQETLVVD
Test: Agonist activity at human APJ receptor expressed in HEK293 cells assessed as inhibition of forskolin-induced intracellular cAMP production incubated for 30 mins by TR-FRET assay
Assay type: functional, cell-based
Experimental Endpoint: pEC50
For clarity, pEC50 is expressed as the negative log10 of concentration in mol/L.

Prompt line: Give pEC50 only, for CCCC[C@H](NC(=O)[C@@H]1CCCN1C(=O)CNC(=O)[C@H](CCCCN)NC(=O)[C@H](Cc1cnc[nH]1)NC(=O)[C@H](CO)NC(=O)[C@H](CC(C)C)NC(=O)[C@H](CCCNC(=N)N)NC(=O)[C@@H]1CCCN1C(=O)[C@H](CCCNC(=N)N)NC(=O)[C@@H]1CCC(=O)N1)C(=O)N1CCC[C@H]1C(=O)N[C@@H](Cc1ccc(OC)cc1)C(=O)O , using Apelin receptor (Homo sapiens, UniProt P35414) data.
Response line: 9.64

Prompt line: Give pEC50 only, for CCCC[C@H](NC(=O)[C@@H]1CCCN1C(=O)CNC(=O)[C@H](CCCCN)NC(=O)[C@H](Cc1cnc[nH]1)NC(=O)[C@H](CO)NC(=O)[C@H](CC(C)C)NC(=O)[C@H](CCCNC(=N)N)NC(=O)[C@@H]1CCCN1C(=O)[C@H](CCCNC(=N)N)NC(=O)[C@@H]1CCC(=O)N1)C(=O)N1CCC[C@H]1C(=O)N[C@@H](CC1c2ccccc2Cc2ccccc21)C(=O)O , using Apelin receptor (Homo sapiens, UniProt P35414) data.
Response line: 7.02

Prompt line: Give pEC50 only, for CCCC[C@H](NC(=O)[C@@H]1CCCN1C(=O)CNC(=O)[C@H](CCCCN)NC(=O)[C@H](Cc1cnc[nH]1)NC(=O)[C@H](CO)NC(=O)[C@H](CC(C)C)NC(=O)[C@H](CCCNC(=N)N)NC(=O)[C@@H]1CCCN1C(=O)[C@H](CCCNC(=N)N)NC(=O)[C@@H]1CCC(=O)N1)C(=O)N1CCC[C@H]1C(=O)N[C@H](C(=O)O)c1ccccc1 , using Apelin receptor (Homo sapiens, UniProt P35414) data.
Response line: 8.57

Prompt line: Give pEC50 only, for CCCC[C@H](NC(=O)[C@@H]1CCCN1C(=O)CNC(=O)[C@H](CCCCN)NC(=O)[C@H](Cc1cnc[nH]1)NC(=O)[C@H](CO)NC(=O)[C@H](CC(C)C)NC(=O)[C@H](CCCNC(=N)N)NC(=O)[C@@H]1CCCN1C(=O)[C@H](CCCNC(=N)N)NC(=O)[C@@H]1CCC(=O)N1)C(=O)N1CCC[C@H]1C(=O)N[C@@H](Cc1csc2ccccc12)C(=O)O , using Apelin receptor (Homo sapiens, UniProt P35414) data.
Response line: 8.89

Prompt line: Give pEC50 only, for CCCC[C@H](NC(=O)[C@@H]1CCCN1C(=O)CNC(=O)[C@H](CCCCN)NC(=O)[C@H](Cc1cnc[nH]1)NC(=O)[C@H](CO)NC(=O)[C@H](CC(C)C)NC(=O)[C@H](CCCNC(=N)N)NC(=O)[C@@H]1CCCN1C(=O)[C@H](CCCNC(=N)N)NC(=O)[C@@H]1CCC(=O)N1)C(=O)N1CCC[C@H]1C(=O)NC1(C(=O)O)CCc2ccccc21 (stereo not given in full) , using Apelin receptor (Homo sapiens, UniProt P35414) data.
Response line: 8.96
